Test system: K4 kissing-loop RNA reporter;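 further: bound reporter read as fluorescence of individual clusters on recovered sequencing chips by microscopy, with normalized cluster intensities fitted with a binding model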
Assay: apparent KD of K4 kissing-loop reporter; higher = weaker reporter binding
Details: Eterna round: R107; input ligand: arginine 13.2 mM
Mark true for reported apparent KD of K4 kissing-loop reporter of 100 nM or greater; mark false for anything smaller.

Worked cases, answers included:
> print(dat)
                                   sequence               target.of.assay  label.value
1  GAUACGAAGCAGUGAUGUUGCUUAUGAGAAGGAGCGCACGAAAGUGCAGGUAGGUCGCUCAGCCAUGUGGACGAAAACGUCCACA [whbob_SS_Arginine_A_sa111]  K4 kissing-loop RNA reporter         true
2  AUCGUUGUCUGAGGAUAUCGGUUAUCUGUAGUGAUGUUACAGUAUAUUCAUAUUAUACUUUCUAUUCGAGAAGGCAGACUACGUA [JR_Nu_ExcFMNB_Sub020]  K4 kissing-loop RNA reporter        false
3  AAAACUAUCAGAAGGAGCGUGGAAUAUACAUCUAUAUUUAAUACGAGUGAUGUUCGUAAUUCACAGGUAGGUCGCUGAUCAAUAA [whbob_Ex_Arginine_B_2th153]  K4 kissing-loop RNA reporter         true
4  GAUGUUUGCCGAAGGAGCGAGUAUUCGCCAGUGAUGUUGGUGAGAUAUACACGUAUCAGUGCUCAGGUAGGUCGCGGCGCUUGUU [Same State Arginine B GF 27]  K4 kissing-loop RNA reporter         true

Say whether AUCUAUGAGCGAGGAUAUGCAUAACGCGAGUGAUGUUCGCGAUGUGGGCGUAAUUGAUAAAAUGAAGCAGAAGGCGCACUCAUGA [Exclusion - FMW B / B] shows apparent KD of K4 kissing-loop reporter of 100 nM or more.
true
